- ASSAY_TEXT: Clearance in Sprague-Dawley rat at 10 mg/kg, po and 2 mg/kg, iv
- Format: ADME, organism-based
- CONDITION_NOTES: in vivo
READOUT: clearance (mL/min/kg)

A: C[C@@H](NC(=O)C1(O)CCCC1)c1ncc(-c2cc(Cl)cc(F)c2-c2nnn(C)n2)cc1F
B: CC(NC(=O)C1(O)CCC(F)(F)C1)c1ncc(-c2cc(Cl)cc(F)c2-c2nnn(C)n2)cc1F (stereo in doubt; 11g)
C: C[C@@H](NC(=O)C1(O)CCC(F)(F)CC1)c1ncc(-c2cc(Cl)cc(F)c2-c2nnn(C)n2)cc1F
Sort the entries above by clearance, smallest first. Rank them, then answer with their labels in that order. C, B, A

###

- System: MDR1 (human)
- ASSAY_TEXT: Apparent permeability across pig L-MDR1 cells overexpressing human MDR1 at 5 uM after 3 hrs by LC/MS/MS analysis
- Format: ADME, cell-based, Sus scrofa
- CONDITION_NOTES: LLC-PK1
READOUT: Papp at 3 h, 5 µM (×10⁻⁶ cm/s)

>  <COMPOUND>
CC(NC(=O)C1(O)CCC(F)(F)C1)c1ncc(-c2cc(Cl)cc(F)c2-c2nnn(C)n2)cc1F (stereo in doubt; 11f)

>  <Papp at 3 h, 5 µM [×10⁻⁶ cm/s]>
29

$$$$
>  <COMPOUND>
C[C@@H](NC(=O)C1(O)CC[S+]([O-])C1)c1ncc(-c2cc(Cl)cc(F)c2-c2nnn(C)n2)cc1F (some centres undefined)

>  <Papp at 3 h, 5 µM [×10⁻⁶ cm/s]>
24

$$$$
>  <COMPOUND>
C[C@@H](NC(=O)C1(O)CCS(=O)(=O)C1)c1ncc(-c2cc(Cl)cc(F)c2-c2nnn(C)n2)cc1F (some centres undefined)

>  <Papp at 3 h, 5 µM [×10⁻⁶ cm/s]>
22

$$$$
>  <COMPOUND>
C[C@@H](NC(=O)C1(O)CCSC1)c1ncc(-c2cc(Cl)cc(F)c2-c2nnn(C)n2)cc1F (some centres undefined)

>  <Papp at 3 h, 5 µM [×10⁻⁶ cm/s]>
31

$$$$
>  <COMPOUND>
C[C@@H](NC(=O)C1(O)CCC(F)(F)CC1)c1ncc(-c2cc(Cl)cc(F)c2-c2nnn(C)n2)cc1F

>  <Papp at 3 h, 5 µM [×10⁻⁶ cm/s]>
31

$$$$
>  <COMPOUND>
C[C@@H](NC(=O)C1(O)CCOCC1)c1ncc(-c2cc(Cl)cc(F)c2-c2nnn(C)n2)cc1F

>  <Papp at 3 h, 5 µM [×10⁻⁶ cm/s]>
24

$$$$
>  <COMPOUND>
C[C@@H](NC(=O)C1(O)CCC(=O)C1)c1ncc(-c2cc(Cl)cc(F)c2-c2nnn(C)n2)cc1F (some centres undefined)

>  <Papp at 3 h, 5 µM [×10⁻⁶ cm/s]>
31

$$$$
>  <COMPOUND>
C[C@@H](NC(=O)C1(O)CCCC1)c1ncc(-c2cc(Cl)cc(F)c2-c2nnn(C)n2)cc1F

>  <Papp at 3 h, 5 µM [×10⁻⁶ cm/s]>
29

$$$$
>  <COMPOUND>
Cc1nc(-c2c(F)cc(Cl)cc2-c2cnc([C@@H](C)NC(=O)[C@@](C)(O)C(F)(F)F)c(F)c2)no1

>  <Papp at 3 h, 5 µM [×10⁻⁶ cm/s]>
27

$$$$

###

- ASSAY_TEXT: Half life in mongrel dog at 3 mg/kg, po and 1 mg/kg, iv
- Type: ADME, organism-based, Canis lupus familiaris
- CONDITION_NOTES: mongrel, in vivo
READOUT: half-life (h)

Would you please look over these solved cases?
>  <COMPOUND>
C[C@@H](NC(=O)C1(O)CCC(F)(F)CC1)c1ncc(-c2cc(Cl)cc(F)c2-c2nnn(C)n2)cc1F

>  <DATA_VALUE>
20.3

$$$$
>  <COMPOUND>
C[C@@H](NC(=O)C1(O)CCC(=O)C1)c1ncc(-c2cc(Cl)cc(F)c2-c2nnn(C)n2)cc1F (stereo partly specified)

>  <DATA_VALUE>
9.8

$$$$
>  <COMPOUND>
C[C@@H](NC(=O)C1(O)CCS(=O)(=O)C1)c1ncc(-c2cc(Cl)cc(F)c2-c2nnn(C)n2)cc1F (stereo partly specified)

>  <DATA_VALUE>
9.9

$$$$

A: C[C@@H](NC(=O)C1(O)CCCC1)c1ncc(-c2cc(Cl)cc(F)c2-c2nnn(C)n2)cc1F
B: C[C@@H](NC(=O)C1(O)CC[S+]([O-])C1)c1ncc(-c2cc(Cl)cc(F)c2-c2nnn(C)n2)cc1F (stereo partly specified)
Pick one: A or B . Which one has the lower reported half-life? Use the label to indicate which entry you chose. B
(B: 3.1 h, A: 4.7 h)

###

- SYSTEM: Rattus norvegicus
- ASSAY_TEXT: Ex vivo displacement of [35S]N-{2-[4-(4,5-dihydro-1H-imidazol-2-yl)phenyl]ethyl}-2-[(2R)-1-(2-naphthylsulfonyl)-3-oxo-1,2,3,4-tetrahydroquinoxalin-2-yl]acetamide from human bradykinin B1 receptor expressed in iv dosed Sprague-Dawley rat brain by liquid scintillation counting
pKi: −log10 of the molar value.
READOUT: pKi

>  <MOLECULE>
C[C@@H](NC(=O)C1(O)CCC(F)(F)CC1)c1ncc(-c2cc(Cl)cc(F)c2-c2nnn(C)n2)cc1F

>  <SYSTEM>
Rattus norvegicus

>  <pKi>
6.85

$$$$

A: C[C@@H](NC(=O)C1(O)CCCC1)c1ncc(-c2cc(Cl)cc(F)c2-c2nnn(C)n2)cc1F
B: CC(NC(=O)C1(O)CCC(F)(F)C1)c1ncc(-c2cc(Cl)cc(F)c2-c2nnn(C)n2)cc1F (stereo in doubt; 11g)
Higher pKi: A or B ? Use the label to indicate which entry you chose. B
(B: 6.92, A: 6.67)

###

- ASSAY_TEXT: Oral bioavailability in Sprague-Dawley rat at 10 mg/kg
- Type: ADME, organism-based
- CONDITION_NOTES: in vivo
READOUT: bioavailability (%)

>  <COMPOUND>
C[C@@H](NC(=O)C1(O)CCCC1)c1ncc(-c2cc(Cl)cc(F)c2-c2nnn(C)n2)cc1F

>  <bioavailability, %>
26

$$$$

I: C[C@@H](NC(=O)C1(O)CCC(F)(F)CC1)c1ncc(-c2cc(Cl)cc(F)c2-c2nnn(C)n2)cc1F
II: CC(NC(=O)C1(O)CCC(F)(F)C1)c1ncc(-c2cc(Cl)cc(F)c2-c2nnn(C)n2)cc1F (stereo in doubt; 11g)
Higher bioavailability: I or II ? Use the label to indicate which entry you chose. II
(II: 96%, I: 62%)

###

- ASSAY_TEXT: Clearance in mongrel dog at 3 mg/kg, po and 1 mg/kg, iv
- Assay type: ADME, organism-based, Canis lupus familiaris
- CONDITION_NOTES: in vivo
READOUT: clearance (mL/min/kg)

>  <MOLECULE>
C[C@@H](NC(=O)C1(O)CC[S+]([O-])C1)c1ncc(-c2cc(Cl)cc(F)c2-c2nnn(C)n2)cc1F (stereo partly drawn)

>  <DATA_VALUE>
2.3

$$$$
>  <MOLECULE>
C[C@@H](NC(=O)C1(O)CCS(=O)(=O)C1)c1ncc(-c2cc(Cl)cc(F)c2-c2nnn(C)n2)cc1F (stereo partly drawn)

>  <DATA_VALUE>
0.5

$$$$
>  <MOLECULE>
Cc1nc(-c2c(F)cc(Cl)cc2-c2cnc([C@@H](C)NC(=O)[C@@](C)(O)C(F)(F)F)c(F)c2)no1

>  <DATA_VALUE>
0.5

$$$$

I: C[C@@H](NC(=O)C1(O)CCSC1)c1ncc(-c2cc(Cl)cc(F)c2-c2nnn(C)n2)cc1F (stereo partly drawn)
II: C[C@@H](NC(=O)C1(O)CCC(=O)C1)c1ncc(-c2cc(Cl)cc(F)c2-c2nnn(C)n2)cc1F (stereo partly drawn)
III: C[C@@H](NC(=O)C1(O)CCCC1)c1ncc(-c2cc(Cl)cc(F)c2-c2nnn(C)n2)cc1F
IV: C[C@@H](NC(=O)C1(O)CCC(F)(F)CC1)c1ncc(-c2cc(Cl)cc(F)c2-c2nnn(C)n2)cc1F
Descending sort on clearance required. Rank them, then answer with their labels in that order. I, IV, III, II

###

- ASSAY_TEXT: Half life in Sprague-Dawley rat at 10 mg/kg, po and 2 mg/kg, iv
- Format: ADME, organism-based
- CONDITION_NOTES: in vivo
READOUT: half-life (h)

>  <COMPOUND>
C[C@@H](NC(=O)C1(O)CCC(F)(F)CC1)c1ncc(-c2cc(Cl)cc(F)c2-c2nnn(C)n2)cc1F

>  <half-life / h>
5.6

$$$$
>  <COMPOUND>
CC(NC(=O)C1(O)CCC(F)(F)C1)c1ncc(-c2cc(Cl)cc(F)c2-c2nnn(C)n2)cc1F (stereo in doubt; 11g)

>  <half-life / h>
4.1

$$$$
>  <COMPOUND>
C[C@@H](NC(=O)C1(O)CCCC1)c1ncc(-c2cc(Cl)cc(F)c2-c2nnn(C)n2)cc1F

>  <half-life / h>
5.5

$$$$
